testedSystem: Aβ42 (Homo sapiens)
Sequence (P05067 672-713): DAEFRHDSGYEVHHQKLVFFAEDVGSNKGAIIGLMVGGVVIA
assayText: Th-T (thioflavin-T) assay of Aβ42 aggregation
Format: biochemical
recordedConditions: Supplementary Fig. 47 source data; measurement M52 of time course
measurementType: Th-T fluorescence, mean of three wells

>  <compound>
C=C1CC[C@H]2[C@]3(C)C[C@@H](C=C(C)C)O[C@H]3CC[C@]2(C)[C@@H]1Cc1c(OC)oc(CO)c(C)c1=O

>  <measurementType>
Th-T fluorescence, mean of three wells

>  <experimentalValue>
3.55

$$$$
>  <compound>
C=C1CCC2C(C)(CC(=O)C=C(C)C)C(O)CCC2(C)C1Cc1c(O)c(C)c(C)oc1=O (stereo not drawn)

>  <measurementType>
Th-T fluorescence, mean of three wells

>  <experimentalValue>
3.602

$$$$
>  <compound>
CC(C)=CCC/C(C)=C/CC/C(C)=C/CC/C(C)=C/Cc1c(O)c(C)c(C)oc1=O

>  <measurementType>
Th-T fluorescence, mean of three wells

>  <experimentalValue>
2.876

$$$$
>  <compound>
C=C1CCC2C(C)(CC(=O)C=C(C)C)C(O)CCC2(C)C1Cc1c(OC)oc(CO)c(C)c1=O (stereo not drawn)

>  <measurementType>
Th-T fluorescence, mean of three wells

>  <experimentalValue>
3.57

$$$$
>  <compound>
C=C1CC[C@H]2[C@]3(C)C[C@H](C=C(C)C)O[C@H]3CC[C@]2(C)[C@@H]1Cc1c(O)c(C)c(C)oc1=O

>  <measurementType>
Th-T fluorescence, mean of three wells

>  <experimentalValue>
3.113

$$$$
>  <compound>
C=C1CC[C@H]2[C@]3(C)C[C@@H](C=C(C)C)O[C@H]3CC[C@]2(C)[C@@H]1Cc1c(O)c(C)c(C)oc1=O

>  <measurementType>
Th-T fluorescence, mean of three wells

>  <experimentalValue>
2.696

$$$$
>  <compound>
C=C1CC[C@@H]2[C@](C)(CC[C@H]3O[C@H](C=C(C)C)C[C@@]23C)[C@@H]1Cc1c(O)c(C)c(C)oc1=O

>  <measurementType>
Th-T fluorescence, mean of three wells

>  <experimentalValue>
3.12

$$$$
>  <compound>
C=C1CC[C@H]2[C@]3(C)C[C@H](C=C(C)C)O[C@H]3CC[C@]2(C)[C@@H]1Cc1c(OC)oc(CO)c(C)c1=O

>  <measurementType>
Th-T fluorescence, mean of three wells

>  <experimentalValue>
3.964

$$$$
>  <compound>
C=C1CCC2C3(C)CC(C=C(C)C)OC3CCC2(C)C1Cc1c(OC)oc(C)c(C)c1=O (stereo not drawn)

>  <measurementType>
Th-T fluorescence, mean of three wells

>  <experimentalValue>
4

$$$$
>  <compound>
C=C1CCC2C(C)(CCC=C(C)C)C(=O)CCC2(C)C1Cc1c(O)c(C)c(C)oc1=O (stereo not drawn)

>  <measurementType>
Th-T fluorescence, mean of three wells

>  <experimentalValue>
2.214

$$$$
>  <compound>
C=C1CC[C@H]2[C@]3(C)C[C@H](C=C(C)C)O[C@H]3CC[C@]2(C)[C@@H]1Cc1c(OC)oc(C)c(C)c1=O

>  <measurementType>
Th-T fluorescence, mean of three wells

>  <experimentalValue>
4.123

$$$$
>  <compound>
C=C1CCC2C(C)(CC(=O)C=C(C)C)C(O)CCC2(C)C1Cc1c(OC)oc(C)c(C)c1=O (stereo not drawn)

>  <measurementType>
Th-T fluorescence, mean of three wells

>  <experimentalValue>
3.752

$$$$
